Items are presented alongside their recorded MCC at 72 h.
Experiment: Cytotoxicity against HELF cells assessed as after 3 days by Coulter counting analysis
Type: cell-based
Conditions: human, HELF cells
Outcome measure: MCC at 72 h

>  <Molecule>
C[C@H](NC(=O)[C@]1(Cc2ccccc2)CCN1C(=O)OCc1ccccc1)C(=O)NC1CCCCC1

>  <Test value>
> 100 µM

$$$$
>  <Molecule>
C[C@H](NC(=O)[C@@]1(Cc2ccccc2)CCN1C(=O)OCc1ccccc1)C(=O)NCc1ccccc1 (racemic)

>  <Test value>
≥ 20 µM

$$$$
>  <Molecule>
C[C@H](NC(=O)[C@]1(Cc2ccccc2)CCN1C(=O)Oc1cccc2ccccc12)C(N)=O

>  <Test value>
> 100 µM

$$$$
>  <Molecule>
CC(C)C[C@H](NC(=O)[C@@]1(Cc2ccccc2)CCN1C(=O)OCc1ccccc1)C(N)=O

>  <Test value>
> 100 µM

$$$$
>  <Molecule>
C[C@H](NC(=O)[C@]1(Cc2ccccc2)CCN1C(=O)CCc1ccccc1)C(N)=O

>  <Test value>
100 µM

$$$$
>  <Molecule>
CC(C)CNC(=O)[C@H](C)NC(=O)[C@]1(Cc2ccccc2)CCN1C(=O)OCc1ccccc1

>  <Test value>
> 100 µM

$$$$
>  <Molecule>
C[C@H](NC(=O)[C@H](Cc1ccccc1)NC(=O)OCc1ccccc1)C(N)=O

>  <Test value>
> 100 µM

$$$$
>  <Molecule>
C[C@H](NC(=O)[C@]1(Cc2ccccc2)CCN1C(=O)N[C@@H](C)c1ccccc1)C(N)=O

>  <Test value>
> 100 µM

$$$$
>  <Molecule>
C[C@H](NC(=O)[C@]1(Cc2ccccc2)CCN1S(=O)(=O)c1ccc2ccccc2c1)C(N)=O

>  <Test value>
> 100 µM

$$$$

* * *

Test: Cytotoxicity against HELF cells assessed as after 3 days by Coulter counting analysis
Assay type: cell-based
Settings: human, HELF cells
Outcome measure: MCC at 72 h

>  <Compound>
NC(=O)[C@H](Cc1ccccc1)NC(=O)[C@@]1(Cc2ccccc2)CCN1C(=O)OCc1ccccc1

>  <Test value>
100 µM

$$$$
>  <Compound>
C[C@H](NC(=O)[C@]1(Cc2ccccc2)CCN1C(=O)OCC1c2ccccc2-c2ccccc21)C(N)=O

>  <Test value>
20 µM

$$$$
>  <Compound>
CC(C)[C@H](NC(=O)[C@]1(Cc2ccccc2)CCN1C(=O)OCc1ccccc1)C(N)=O

>  <Test value>
> 100 µM

$$$$
>  <Compound>
CC(C)[C@H](NC(=O)[C@@]1(Cc2ccccc2)CCN1C(=O)OCc1ccccc1)C(N)=O

>  <Test value>
> 100 µM

$$$$
>  <Compound>
C[C@@H](NC(=O)[C@]1(Cc2ccccc2)CCN1C(=O)OCc1ccccc1)C(N)=O

>  <Test value>
> 100 µM

$$$$
>  <Compound>
NC(=O)[C@H](CCC(=O)O)NC(=O)C1(Cc2ccccc2)CCN1C(=O)OCc1ccccc1 (mixture of isomers)

>  <Test value>
> 100 µM

$$$$
>  <Compound>
Nc1nc2c(ncn2COCCO)c(=O)[nH]1

>  <Test value>
> 1780 µM

$$$$
>  <Compound>
NC(=O)[C@H](Cc1ccccc1)NC(=O)[C@]1(Cc2ccccc2)CCN1C(=O)OCc1ccccc1

>  <Test value>
100 µM

$$$$
